# System Tested: human PPARα (Homo sapiens, UniProt Q07869)
# Construct: expressed in transfected cells; host or cells: RK13 or COS-7
# Sequence (Q07869 239-466 limits assumed): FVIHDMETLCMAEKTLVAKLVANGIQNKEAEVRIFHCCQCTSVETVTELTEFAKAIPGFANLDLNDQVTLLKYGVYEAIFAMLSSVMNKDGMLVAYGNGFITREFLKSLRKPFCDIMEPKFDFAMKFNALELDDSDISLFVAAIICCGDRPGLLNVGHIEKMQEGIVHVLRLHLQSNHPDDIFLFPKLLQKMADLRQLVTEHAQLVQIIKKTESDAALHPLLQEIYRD
# Assay: PPARα/Gal4 transactivation system
# Type: cell-based
# Condition Set: 10 μM
Recorded Metric: induction factor (luminescent signal relative to untreated cells)
Give bare numbers.

Reference set (3 entries):
CCCCCCOc1ccc(C(=O)/C=C/c2cc(C)c(OC(C)(C)C(=O)O)c(C)c2)cc1 ... 44
COc1ccccc1C(=O)/C=C/c1cc(C)c(OC(C)(C)C(=O)O)c(C)c1 ... 15.5
Cc1cc(/C=C/C(=O)c2ccc(Cl)cc2)cc(C)c1OC(C)(C)C(=O)O ... 85

Now, please, on to the next molecule.
Identify the reported induction factor (luminescent signal relative to untreated cells) for the following entry. `CSc1ccc(C(=O)/C=C/c2cc(C)c(OC(C)(C)C(=O)O)c(C)c2)cc1`
25
